tested-target: Endothelin receptor type B (Sus scrofa, UniProt P35463)
Sequence (P35463 whole entry): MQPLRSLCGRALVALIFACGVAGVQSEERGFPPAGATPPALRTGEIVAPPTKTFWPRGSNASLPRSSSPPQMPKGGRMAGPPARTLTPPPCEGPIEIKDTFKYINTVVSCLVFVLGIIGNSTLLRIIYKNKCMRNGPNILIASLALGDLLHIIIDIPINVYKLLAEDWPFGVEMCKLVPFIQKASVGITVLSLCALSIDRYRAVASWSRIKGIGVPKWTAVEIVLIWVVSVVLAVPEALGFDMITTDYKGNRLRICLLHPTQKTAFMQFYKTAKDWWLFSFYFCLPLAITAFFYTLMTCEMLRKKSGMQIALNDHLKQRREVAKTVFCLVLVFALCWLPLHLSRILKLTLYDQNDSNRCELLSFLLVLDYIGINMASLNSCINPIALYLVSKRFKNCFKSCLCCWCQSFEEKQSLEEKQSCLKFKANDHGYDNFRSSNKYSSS
Starred links: 1 amine or outer side, 2 acyl side, 3 side chain; linkers in the order of their positions; H or OH if unused. Residues, ends and D or L forms follow the SMILES beside them. Suc = O=C(CCC(=O)[*:2])[*:1]
Each entry below lists one item and its recorded pKi value.
Lab note: report pKi as minus log10 of the concentration in molar units, number only.

CC[C@H](C)[C@H](NC(=O)[C@H](CC(=O)O)NC(=O)[C@H](CC(C)C)NC(=O)[C@H](Cc1c[nH]cn1)NC(=O)[C@H](C)NC(=O)CNC(=O)[C@H](Cc1ccc(O)cc1)NC(=O)[C@@H](NC(=O)[C@H](C)NC(=O)[C@H](CCC(=O)O)NC(=O)CCC(=O)O)C(C)C)C(=O)N[C@H](C(=O)N[C@@H](Cc1c[nH]c2ccccc12)C(=O)O)[C@@H](C)CC (Suc-EAVYGAHLDIIW-OH) :: 6.59

Requested read-out: pKi. Entry: CC[C@H](C)[C@H](NC(=O)CNC(=O)[C@H](CC(C)C)NC(=O)[C@H](Cc1cnc[nH]1)NC(=O)[C@H](C)NC(=O)[C@H](Cc1ccccc1)NC(=O)[C@H](Cc1ccc(O)cc1)NC(=O)[C@@H](NC(=O)[C@H](C)NC(=O)[C@H](CCC(=O)O)NC(=O)CCC(=O)O)C(C)C)C(=O)N[C@H](C(=O)N[C@@H](Cc1c[nH]c2ccccc12)C(=O)O)[C@@H](C)CC (Suc-EAVYFAHLGIIW-OH) 9.60

Here is the next compound: CC[C@H](C)[C@H](NC(=O)[C@H](CC(=O)O)NC(=O)[C@H](CC(C)C)NC(=O)CNC(=O)[C@H](C)NC(=O)[C@H](Cc1ccccc1)NC(=O)[C@H](Cc1ccc(O)cc1)NC(=O)[C@@H](NC(=O)[C@H](C)NC(=O)[C@H](CCC(=O)O)NC(=O)CCC(=O)O)C(C)C)C(=O)N[C@H](C(=O)N[C@@H](Cc1c[nH]c2ccccc12)C(=O)O)[C@@H](C)CC (Suc-EAVYFAGLDIIW-OH) 9.00

###

tested-target: Endothelin-1 receptor (Sus scrofa, UniProt Q29010)
Sequence (Q29010 whole entry): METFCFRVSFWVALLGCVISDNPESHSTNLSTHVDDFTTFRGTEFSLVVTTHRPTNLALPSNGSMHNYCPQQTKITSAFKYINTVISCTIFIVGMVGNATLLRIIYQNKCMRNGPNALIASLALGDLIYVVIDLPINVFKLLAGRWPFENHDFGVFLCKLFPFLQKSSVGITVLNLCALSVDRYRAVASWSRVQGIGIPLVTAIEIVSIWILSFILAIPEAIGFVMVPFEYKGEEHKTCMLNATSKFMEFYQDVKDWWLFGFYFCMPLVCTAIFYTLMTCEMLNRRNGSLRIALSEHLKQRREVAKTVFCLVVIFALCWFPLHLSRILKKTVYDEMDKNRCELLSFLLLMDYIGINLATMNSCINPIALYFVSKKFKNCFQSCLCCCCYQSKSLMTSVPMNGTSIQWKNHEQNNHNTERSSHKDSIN
Starred links: 1 amine or outer side, 2 acyl side, 3 side chain; linkers in the order of their positions; H or OH if unused. Residues, ends and D or L forms follow the SMILES beside them. Suc = O=C(CCC(=O)[*:2])[*:1]
measurement-type: Ki (nM)
Form entry: value (nM) — number only.

Requested read-out: Ki. Entry: CC[C@H](C)[C@H](NC(=O)[C@H](CC(=O)O)NC(=O)[C@H](CC(C)C)NC(=O)[C@H](Cc1cnc[nH]1)NC(=O)CNC(=O)[C@H](Cc1ccccc1)NC(=O)[C@H](Cc1ccc(O)cc1)NC(=O)[C@@H](NC(=O)[C@H](C)NC(=O)[C@H](CCC(=O)O)NC(=O)CCC(=O)O)C(C)C)C(=O)N[C@H](C(=O)N[C@@H](Cc1c[nH]c2ccccc12)C(=O)O)[C@@H](C)CC (Suc-EAVYFGHLDIIW-OH) 2000
